The measured values listed here are drawn from ChEMBL document CHEMBL3124829.

# PROTOCOL_TEXT: Half life in rat at 3 mg/kg, iv
# Format: ADME, organism-based
# Parameters: dose 3 mg/kg, route intravenous
# MEASUREMENT_CONTEXT: in vivo
OBSERVED_PROPERTY: half-life (h)
All answers are understood in h, so give the number only.

Sure, the documented half-life for `O=C(O)c1c(-c2ccc[nH]c2=O)c2c3occc3c(F)cc2n1Cc1cc2c(=O)[nH]cnc2cc1F` is 9.4

====

# PROTOCOL_TEXT: Inhibition of HCV genotype 1b C-terminal polyhistidine-tagged NS5B Cdelta21 RdRp expressed in Escherichia coli using DCoH75 as template assessed as incorporation of [33P]-CTP in polynucleotide sequence after 2 hrs by scintillation counting analysis
# Parameters: species or system Hepatitis C virus subtype 1b
OBSERVED_PROPERTY: IC50 (nM)
All answers are understood in nM, so give the number only.

Solved cases (3 shown):
STRUCTURE	UNIT_NAME	IC50
NC(=O)c1ccc(F)c(Cn2c(C(=O)NS(=O)(=O)C3CC3)c(-c3ccc[nH]c3=O)c3cc(C(F)(F)F)c(F)cc32)c1	nM	8
CCOC(=O)c1c(-c2ccc[nH]c2=O)c2c3occc3c(F)cc2n1Cc1cc2c(=O)[nH]cnc2cc1F	nM	9
Cn1cnc2cc(F)c(Cn3c(C(=O)O)c(-c4ccc[nH]c4=O)c4c5occc5c(F)cc43)cc2c1=O	nM	3

Turning now to a further molecule:
Sure, the documented IC50 for `O=C(O)c1c(-c2ccc[nH]c2=O)c2c3occc3c(F)cc2n1Cc1cc2c(=O)[nH]cnc2cc1F` is 5

====

# PROTOCOL_TEXT: AUC (0 to 24 hrs) in rat at 10 mg/kg, po
# Assay type: ADME, organism-based
# Design: time < 24 hr, dose 10 mg/kg, route oral
# MEASUREMENT_CONTEXT: plasma
OBSERVED_PROPERTY: AUC(0-t) at 24 h (µM·h)
All answers are understood in µM·h, so give the number only.

Sure, the documented AUC(0-t) at 24 h for `O=C(O)c1c(-c2ccc[nH]c2=O)c2c3occc3c(F)cc2n1Cc1cc2c(=O)[nH]cnc2cc1F` is 10

====

# PROTOCOL_TEXT: Half life in monkey at 1 mg/kg, iv
# Type: ADME, organism-based, Macaca mulatta
# Set-up: dose 1 mg/kg, route intravenous
# MEASUREMENT_CONTEXT: rhesus monkey, in vivo
OBSERVED_PROPERTY: half-life

Sure, the documented half-life for `O=C(O)c1c(-c2ccc[nH]c2=O)c2c3occc3c(F)cc2n1Cc1cc2c(=O)[nH]cnc2cc1F` is 8.9 h

====

# PROTOCOL_TEXT: AUC (0 to 6 hrs) in rat at 10 mg/kg, po
# Assay type: ADME, organism-based
# Parameters: time < 6 hr, dose 10 mg/kg, route oral
# MEASUREMENT_CONTEXT: plasma
OBSERVED_PROPERTY: AUC(0-t) at 6 h (µM·h)
All answers are understood in µM·h, so give the number only.

Solved cases (5 shown):
STRUCTURE	UNIT_NAME	AUC(0-t) at 6 h
O=C(O)c1c(-c2ccc[nH]c2=O)c2c3occc3c(F)cc2n1Cc1cc2c(=O)[nH]cnc2cc1F	µM·h	4.3
Cc1nc2cc(F)c(Cn3c(C(=O)O)c(-c4ccc[nH]c4=O)c4c5occc5c(F)cc43)cc2c(=O)[nH]1	µM·h	0.85
NC(=O)c1ccc(F)c(Cn2c(C(=O)NS(=O)(=O)C3CC3)c(-c3ccc[nH]c3=O)c3c4occc4c(F)cc32)c1	µM·h	0.21
Nc1nc2cc(F)c(Cn3c(C(=O)O)c(-c4ccc[nH]c4=O)c4c5occc5c(F)cc43)cc2c(=O)[nH]1	µM·h	0.02
Cn1cnc2cc(F)c(Cn3c(C(=O)O)c(-c4ccc[nH]c4=O)c4c5occc5c(F)cc43)cc2c1=O	µM·h	0.17

Turning now to a further compound:
Sure, the documented AUC(0-t) at 6 h for `O=C(O)c1c(-c2ccc[nH]c2=O)c2c3occc3c(F)cc2n1Cc1cc2[nH]c(=O)[nH]c2cc1F` is 4

====

# PROTOCOL_TEXT: Inhibition of HCV genotype 1b C-terminal polyhistidine-tagged NS5B Cdelta21 RdRp expressed in Escherichia coli using DCoH75 as template assessed as incorporation of [33P]-CTP in polynucleotide sequence after 2 hrs by scintillation counting analysis
# Set-up: species or system Hepatitis C virus subtype 1b
OBSERVED_PROPERTY: pIC50
The scale used: pIC50 is minus the common logarithm of the concentration in molar units.

Sure, the documented pIC50 for `CN(C)CCCCOC(=O)c1c(-c2ccc[nH]c2=O)c2c3occc3c(F)cc2n1Cc1cc2c(=O)[nH]cnc2cc1F` is 7.12

Sure, the documented pIC50 for `CCc1ccc2c(c1)c(-c1ccc[nH]c1=O)c(C(=O)NS(=O)(=O)C1CC1)n2Cc1cc(C#N)ccc1F` is 8.15

Sure, the documented pIC50 for `NC(=O)c1ccc(F)c(Cn2c(C(=O)NS(=O)(=O)C3CC3)c(-c3ccc[nH]c3=O)c3c4occc4c(F)cc32)c1` is 8.30

Sure, the documented pIC50 for `CCc1cc2c(-c3ccc[nH]c3=O)c(C(=O)NS(=O)(=O)C3CC3)n(Cc3cc(C(N)=O)ccc3F)c2cc1F` is 8.30

Sure, the documented pIC50 for `Cn1c(=O)[nH]c(=O)c2cc(Cn3c(C(=O)O)c(-c4ccc[nH]c4=O)c4c5occc5c(F)cc43)c(F)cc21` is 8.22
